Attribution: PubChem BioAssay (NCI)

- protocol.details: NCI Yeast Anticancer Drug Screen. Data for the mlh1 rad18 strain (AID 175)
- condition.set: S. cerevisiae mlh1 rad18 strain growth inhibition; at 50.0 µM; active compounds read high
About 79,000 compounds went through this panel and 15% of them were active in at least one assay; those are over-represented in the sample as a whole.
measurement.type: growth inhibition (%)
Answer in %, number only, no unit symbol.

Given the compound "CC1(C)N=C(N)N=C(N)N1c1cccc(CO)c1" , what is its reported growth inhibition?
28.2

Now the compound "O=C(S)c1ccccc1Br"
3.8

One more compound: C=C(C)C(=O)O[C@H]1C/C(CO)=C/CCC(=C)C(OC(C)=O)[C@H]2OC(=O)C(=C)[C@H]12 (some centres not stated)
-20.2

Okay, and CC(=O)OC1CCC2(C)C(=CCC3C2CCC2(C)C(/C(C)=N/NC(N)=O)CCC32)C1 (configuration not stated) ?
-0.5

Let us now turn to "COc1ccc(CC(=O)c2c(OC)c3c(c4c2OC(C)(C)CC4)OC(C)(C)CC3)cc1OC"
34.4

Would you kindly repeat that for "COc1ccc2c(=O)c(O)c(-c3ccc(OC)c(OC)c3)oc2c1" ?
18.4

Now this one: "O=C1CCc2ccccc21"
7.75

Param item: COC1=CC(O)(CC(N)=O)c2ccccc2C1=O (configuration not stated)
4.85

Then "CCCC(=O)NC(Nc1ccc(S(=O)(=O)Nc2nc(C)cc(C)n2)cc1)(C(F)(F)F)C(F)(F)F" ?
-21.4

And "O=C1Cc2ccccc2CN1" ?
32.3

Would you kindly repeat that for "Cc1cc(S(=O)(=O)/N=C(/NN)Nc2ccc(Cl)cc2)c(S)cc1Cl" ?
29.9

// next record "CCCCCCCCCCCCCCCCc1c(C)ncn(C)c1=O"
-49

###

- protocol.details: NCI Yeast Anticancer Drug Screen. Data for the cln2 rad14 strain (AID 165);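 further: 0% = growth equal to vehicle treated cultures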
- condition.set: S. cerevisiae cln2 rad14 strain, at 50.0 µM, active compounds read high
The panel holds about 79,000 compounds, 15% with a hit somewhere; the sample as a whole holds those more often.
Give growth inhibition for every item shown.
Field format: number, assumed %, no unit text.

Fill in the blank: the reported growth inhibition of "O.[Cl][Pt].[NH-]CC[S-]" is ____.
-9.6

Moving on to "Brc1cc2c(cc1C1SCCS1)OCO2"
18.6

Now give it for O=C(O)C1C=CC2OC2C1C(=O)O (centres undefined) too.
-31.9

Input "COC(=N)c1ncn(Cc2ccccc2)c1N"
-24.4

Same read-out for "Cc1nc(C)c(N2CCN(S(=O)(=O)N(Cc3ccccc3)Cc3ccccc3)CC2)c(=O)[nH]1" ?
3.85

One more molecule: CCOCC(C)(CO)CC(C)CO (centres undefined)
-6.6

Please answer likewise for "CCOC(=O)/C=C/C(=O)OCC"
-2.55

Param item: "C(CCc1nnc2c(n1)CCCC2)Cc1nnc2c(n1)CCCC2"
-12.1

Query COC(=O)C1CCC(=O)N1Cc1csc(-c2ccccc2)n1 (centres undefined) next
-24.7

Entry "COC(=O)[C@]1(NC(=O)c2ccccc2)C[C@H]1C=O" please
10.9

How about this molecule: "COC(=O)/C(C#N)=C1\NC(=O)c2ccccc21"
30.8

And CC(O)C(O)C(O)CO (centres undefined) ?
19.8

Param item: "Cn1c(C(F)(F)F)nc2nc(Cl)c(Cl)nc21"
21.2

Now try "Nc1cc(F)ccc1CC(=O)O" .
-4.8

Also "CN(CC(=O)O)Cc1ccccc1" ?
-13.9

Please answer likewise for "COc1cc(Br)c(CC(=O)c2ccc3c(c2)OCO3)cc1OC"
-0.7

Lookup CCCCCCCCCCCCCCCCCC(=O)OCC1OC(OC2(OC(=O)CCCCCCCCCCCCCCCCC)OC(COC(=O)CCCCCCCCCCCCCCCCC)C(OC(=O)CCCCCCCCCCCCCCCCC)C2OC(=O)CCCCCCCCCCCCCCCCC)C(OC(=O)CCCCCCCCCCCCCCCCC)C(OC(=O)CCCCCCCCCCCCCCCCC)C1OC(=O)CCCCCCCCCCCCCCCCC (centres undefined)
-2.75

Try the molecule O=C1CC2CCCCC2CC1c1ccccc1 (centres undefined)
-22.6

Also, "CN[C@H]1CC[C@]23C[C@]24CC[C@]2(C)[C@@H]([C@H](C)N(C)C)CC[C@@]2(C)[C@@H]4CC[C@H]3C1(C)C" please.
6.35

Param item: "O=[N+]([O-])c1ccc2c(Cl)c3ccccc3nc2c1"
17.6

Moving on to the next molecule: CC(=O)OCC1OC(OC(C)=O)C(NS(=O)(=O)Cc2ccccc2)C(OC(C)=O)C1OC(C)=O (centres undefined)
-1.35

Continue with "Nc1nc2scnc2c(=O)[nH]1"
-7.95

Then "COc1ccc2[nH]c(=O)ccc2c1" ?
-0.5

Entry O=C(c1ccccc1)C1C(C(=O)c2ccccc2)C(c2ccccc2)N(c2ccccc2)C1c1ccccc1 (centres undefined) please
18.9

###

- protocol.details: NCI Yeast Anticancer Drug Screen. Data for the cln2 rad14 strain (AID 165);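 further: 0% = growth equal to vehicle treated cultures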
- condition.set: S. cerevisiae cln2 rad14 strain, at 50.0 µM
Compounds without any hit were thinned out: in the full panel of roughly 79,000, 15% have a hit. Active and inactive are the calls of the source. No stated cut-off is given here; in the data, active means growth inhibition above about 70%; inactive means the rest.
In this exercise, the only acceptable responses are active, inactive

For this compound, state the assay outcome: ClCC1=NC2C(Cl)C(Cl)C(Cl)C(Cl)C2N1 (centres undefined)
active

Follow-up entry: c1ccc(Sc2cccc3c(-c4ccccc4)c4cccc5c4c(c23)C[S+]5c2ccccc2)cc1 (centres undefined)
active

Also, "O=C1C(=O)c2ccccc2C(O)=C1c1ccc(Br)cc1" please.
inactive

Another: "N#[N+]c1ccc2c(c1)C(=O)c1ccccc1-2"
inactive

What would you report for "c1ccc(CCN(c2ccccc2)c2ccccc2)cc1" ?
inactive

Also "N=c1ccc2nc(N)nn(O)c-2c1" ?
inactive

Okay, and "CCOC(=O)C12CCC(C(=O)OCC)(CC13OCCO3)C1(C2)OCCO1" ?
inactive

Another compound to look at: "CNCCCCCNC"
inactive

For CC1=CC2(C)Cc3cc(C)cc(C)c3S(=O)(=O)C2C(C(=O)O)=C1 (centres undefined) then?
inactive

One more compound: "Nc1ccc([N+](=O)[O-])cc1F"
inactive

Queued: "COc1ccc2nccc(/C=C/CC3CCN(C(C)=O)CC3)c2c1"
inactive

// same read-out, input: O=C1CC(C2OCOC3COCOC32)CC(=O)N1 (centres undefined)
inactive

// repeat for CN1CCCC2C(c3ccccc3)C(C3=NCCCC3)C(c3ccccc3)CC21 (centres undefined) and report
inactive

Same lookup for O=C1OC2C3c4ccccc4C(c4c3ccc3ccccc43)C2O1 (centres undefined) , please.
inactive

And for "Cc1cccc[n+]1CC(=O)c1ccccc1" ?
inactive

Again, but for "COc1cc(C=O)ccc1OC(=O)Nc1ccc(F)c([N+](=O)[O-])c1"
inactive

And for CN1CCS(=O)(=O)NC(Cc2ccccc2)C(=O)N2CCCC2C1=O (centres undefined) ?
inactive

Request: CC(C)CC(CC(C)C)NCC(C)OC(=O)c1ccc(N(C)C)cc1 (centres undefined)
inactive

What do you get for C/C=C1\CN2CCc3c([nH]c4ccccc34)C2CC1CC(=O)N(C)C (centres undefined) ?
inactive

# repeat for COc1cc2c(cc1OC)C(c1ccc(N=Cc3ccc(N(C)C)cc3)cc1)N(C(=S)Nc1cc(Cl)ccc1Cl)CC2 (centres undefined)
inactive

Another compound to check: "COc1cccc(C=NC23CC4CC(CC(C4)C2)C3)c1"
inactive

Try the compound "Cc1ncc([N+](=O)[O-])n1CCNC(=O)CCCn1cnc([N+](=O)[O-])n1"
inactive

// query: "CC(=O)/C=C(\O)c1c(C)[nH]c2ccccc12"
inactive

Check "O=Cc1cc2c(cc1Cl)OCO2" too.
inactive

###

Please go through the items and note down their growth inhibition.
- protocol.details: NCI Yeast Anticancer Drug Screen. Data for the rad50 strain (AID 155);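 further: 0% = growth of vehicle-only cultures of the same strain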
- condition.set: S. cerevisiae rad50 strain growth inhibition; at 50.0 µM; active compounds read high
Compounds without any hit were thinned out: in the full panel of roughly 79,000, 15% have a hit.
Respond with the bare value in %.

Need growth inhibition of "Nc1nc(N)c2cc(CNc3ccc(C(=O)NC(C(=O)O)C(=O)O)cc3)ccc2n1" , thanks.
-39.1

Check "CCCO/N=[N+](\[O-])N(CC)CC" too.
-7.7

Item: "COc1ccc(N=Cc2ccc(C=Nc3ccc(OC)cc3)cc2)cc1"
23.2

Same read-out for "Cn1cnc2cc(NCCO)c([N+](=O)[O-])cc2c1=O" ?
11.1

Try OCC1COc2ccc(Cl)cc2O1 (stereo not given) (tested in a mixture with another compound) next.
-10.3

Try the molecule "O=C1OCCC1(Cc1ccc(Cl)cc1)Cc1ccc(Cl)cc1"
-16.1

Now the same for "Cc1ccc(OS(=O)(=O)c2ccccc2)cc1"
36

Next record, please: O=S(=O)(NCC(Cl)CCl)c1ccccc1 (stereo not given)
0.7

Thanks! And "COc1c(OC(C)=O)c(Cl)cc(C=O)c1[N+](=O)[O-]" ?
47.1

What do you get for N#CC1CC=CCC1 (stereo not given) ?
19.4

Similarly, "Cc1ccc(C(=O)c2ccccc2)cc1C[N+](C)(C)C" ?
20.3

Same question for "O=C1c2cc([N+](=O)[O-])ccc2-c2c(Cl)cc(NC(=O)C(F)(F)F)cc21" please.
-0.5

Next record, please: "CCC(CC)COC(=O)c1ccccc1C"
7.45

Next up: "Cc1nc(N(CCO)CCO)c2sc(=S)n(-c3ccccc3)c2n1"
-35.5

Would you kindly repeat that for Cc1cc(S(=O)(=O)O)c(NC(=O)C(=O)C2C=CCS2(=O)=O)cc1Cl (stereo not given) ?
-5.2

Try the molecule O=C1OC(=O)C2CCCCC12 (stereo not given)
29.9

Further, for "NCC(=O)N1CCCCC1" ?
7.05

Also need "COc1cc(NS(=O)(=O)c2ccc(C)cc2)c2nccnc2c1" , thanks.
14.1

Would you mind doing "COc1ccc(OC(=O)Nc2ccc(OC)cc2Cl)cc1" as well?
3

Here is the next molecule: "CCCCCCCCCCCCCCCCCC(N)=O"
5.2

Can you handle "CCCC(=O)Nc1cc([N+](=O)[O-])c([N+](=O)[O-])cc1OC" next?
-3.7

Try this molecule too: CCOC(=O)CCC1(C)OCC(O)CO1 (stereo not given) (tested in a mixture with another compound)
-11.1

How about "CC(=O)Nc1cc(F)c(N)c(F)c1" ?
-10.9

Please answer likewise for "O=C(O)CCc1c[nH]c(=S)[nH]1"
10

Same for CC12CC(=O)OC(C1)C(=O)c1ccccc12 (stereo not given)
8.9
